Assay: inhibitors of TNFa-induced NFkB p65 translocation, primary screen, imaging, HUVEC, MLSMR starter and 10KST1 sets (AID 438);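 also: compound added about 3h40 before a 20 min TNFalpha stimulation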;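 as to inhibition: signal is the nuclear over cytoplasmic p65 intensity ratio per well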
Conditions: HUVEC TNFa-induced p65 nuclear translocation; at 2 µM, stronger effect = higher value, 0% TNFa-plus-vehicle, 100% no-TNFa wells
READOUT KIND: inhibition (%)
Hi! Could you send only the number? It should be in %, unit omitted.

[Q] If you can, please state the reported inhibition value of Cc1ccc2cc(C(c3nnnn3CC3CCCO3)N3CCCC4(CCCCC4)C3)c(=O)[nH]c2c1 (stereo unspecified) .
[A] 0.8

[Q] If you can, please state the reported inhibition value of O=C(CCc1nc2ccccc2[nH]1)Nc1ccc2c(c1)OCO2 .
[A] -9.6

[Q] If you can, please state the reported inhibition value of Cc1ccccc1-c1nc(Cc2ccccc2)no1 .
[A] -9.1

[Q] If you can, please state the reported inhibition value of COc1cccc(C(c2nnnn2CCc2ccccc2)N2CCN(c3ccccc3)CC2)c1OC (stereo unspecified) .
[A] -23.5

[Q] If you can, please state the reported inhibition value of CCOC(=O)c1ccc2[nH]c3c(c2c1)CN(C)CC3 .
[A] -1.3

[Q] If you can, please state the reported inhibition value of O=C(CSc1nccn1Cc1ccccc1)Nc1nccs1 .
[A] -0.7

---

Test: inhibitors of E-selectin induction by TNFa, primary screen, imaging, HUVEC, immunofluorescence, MLSMR starter and 10KST1 sets (AID 487);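 also: signal is fraction of cell area covered by stained E-selectin grains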
Settings: HUVEC TNFalpha-induced E-selectin immunofluorescence imaging, at 2 µM; stronger effect = higher value
# thresholds on inhibition define classes: low range (below -80%), mid range (-80% to below -20%), high range (-20% or more)

[Q] # bin label for CCn1c2ccccc2c2cc(Nc3cc(C)nc4ncnn34)ccc21
[A] low range

[Q] # bin label for O=C1CCCN1CCCNc1ncnc2c1[nH]c1ccc(Cl)cc12
[A] low range

[Q] # bin label for Cc1cccc2c(=O)oc(-c3ccc4c(c3)C(=O)N(CC3CCCO3)C4=O)nc12 (stereo not drawn)
[A] high range

[Q] # bin label for Cc1oc(-c2ccccc2F)nc1CS(=O)(=O)CC(=O)NCc1ccco1
[A] mid range

[Q] # bin label for CCOc1ccccc1-n1c(SCC(=O)NC2CCCC2)nnc1-c1ccoc1C
[A] high range

[Q] # bin label for O=C(c1ccccc1)n1c(=S)nc2ccccn21
[A] high range

[Q] # bin label for Oc1ccc(Cl)cc1-c1cc(-c2ccccc2)n[nH]1
[A] high range

[Q] # bin label for Cn1ncc(N=Cc2c(O)ccc3ccccc23)c1C(=O)N1CCOCC1
[A] mid range

[Q] # bin label for Clc1ccc(C2=Nn3c(nnc3-c3n[nH]c4c3CCC4)SC2)cc1Cl
[A] high range

[Q] # bin label for CC(=O)/C=C(\C)NCCNc1c(F)c(F)c(CO)c(F)c1F
[A] mid range

[Q] # bin label for OCc1cn(-c2ccccc2)nc1-c1ccc2c(c1)OCCO2
[A] low range

[Q] # bin label for COc1ccc(CN(C)CCc2ccccn2)c(OC)c1OC
[A] low range

[Q] # bin label for Cc1nnc2n(-c3ccc(Cl)cc3)c(=O)c3c4c(sc3n12)CN(C)CC4
[A] high range

[Q] # bin label for COc1ccc(NC(=O)CN(c2ccc(C)cc2)S(C)(=O)=O)c(OC)c1
[A] low range

[Q] # bin label for C=CCOc1nc2c(c(=O)n(Cc3ccc(Cl)cc3)c(=O)n2C)n1C
[A] high range

[Q] # bin label for COC(=O)NCC12CC3CC(C1)CC(CNC(=O)OC)(C3)C2
[A] mid range

[Q] # bin label for Cc1cc(NC(=O)c2cccc(S(=O)(=O)N3CC(c4ccccc4)CC3=O)c2)no1 (stereo not drawn)
[A] mid range

[Q] # bin label for COc1ccc(Cl)cc1NC(=O)CCN1CCN(c2ccccc2C)CC1
[A] mid range

[Q] # bin label for CCOC(=O)COn1c(=O)c(-c2ccc(OC)c(OC)c2)[n+]([O-])c2ccccc21
[A] mid range

[Q] # bin label for O=C(Nc1ccccc1)c1cc(N2CCOCC2)nc2ccccc12
[A] low range

[Q] # bin label for CSc1nc2c(c(=O)n1C)SC(C)C2 (stereo not drawn)
[A] mid range

[Q] # bin label for COc1ccc(Cn2nnnc2C(c2ccccn2)N2CCN(c3cc(Cl)ccc3C)CC2)cc1 (stereo not drawn)
[A] high range

---

Experiment: inhibitors of poly I:C-induced TLR3 signaling, primary screen, cell-based, poly I:C stimulus, luciferase, 10K MLSCN set (AID 602277)
Conditions: HEK293-TLR3 RL24 IRF3 luciferase reporter, at 10 µM, stronger effect = higher value
Exercise: for every item that follows, state its recorded inhibition.
Hi! Could you send only the number? It should be in %, unit omitted.

[Q] If you can, please state the reported inhibition value of Cc1ccc(NC(=O)CSc2nnc(-c3ccccn3)n2C)cc1 .
[A] -5.25

[Q] If you can, please state the reported inhibition value of CCCn1c(C)nc2c(c1=O)c1nc3ccccc3nc1n2CCc1ccccc1 .
[A] 0.543

[Q] If you can, please state the reported inhibition value of O=C(CSc1nc2ccsc2c(=O)n1NC(=O)c1ccccc1)Nc1nccs1 .
[A] 0.179

[Q] If you can, please state the reported inhibition value of COC(=O)c1ccc(CNC(=O)CSc2nc3sc(C)c(C)c3c(=O)n2C)o1 .
[A] 29.6

[Q] If you can, please state the reported inhibition value of O=C(CNC(=O)c1cc2ccccc2o1)NCc1cccs1 .
[A] 16.2

[Q] If you can, please state the reported inhibition value of c1ccc(-c2noc(C3CCCCC3)n2)nc1 .
[A] -68.3

[Q] If you can, please state the reported inhibition value of Cc1ccc(-c2nc3ncccc3o2)cc1NC(=O)c1ccco1 .
[A] 14.6

[Q] If you can, please state the reported inhibition value of CCCCc1ccc(NC(=O)N[C@H](C(=O)O)C(C)C)cc1 .
[A] -7.11

[Q] If you can, please state the reported inhibition value of CCS(=O)(=O)N1CCC(C(=O)NC2CCCCCCC2)CC1 .
[A] -6.47

[Q] If you can, please state the reported inhibition value of CN(CC(=O)O)S(=O)(=O)c1cc(Cl)ccc1Cl .
[A] -16.7

[Q] If you can, please state the reported inhibition value of COc1ccc(C)cc1S(=O)(=O)N(CC(=O)O)c1ccccc1 .
[A] 21

[Q] If you can, please state the reported inhibition value of O=C1CN(C(=O)COC(=O)c2ccccc2NC(=O)c2ccco2)c2ccccc2N1 .
[A] -17.5

[Q] If you can, please state the reported inhibition value of COc1cccc(Nc2cc(C)nc3ccccc23)c1 .
[A] 99.5

[Q] If you can, please state the reported inhibition value of COc1ccc(S(=O)(=O)N2CCN(c3ccc(C)cc3C)CC2)cc1OC .
[A] 13.8

[Q] If you can, please state the reported inhibition value of CN(C)C(=O)c1ccc(COc2ccccc2Br)o1 .
[A] -62.5

[Q] If you can, please state the reported inhibition value of O=C(Nc1cccc2ccccc12)N1CCN(c2ccccc2)CC1 .
[A] 15.2

[Q] If you can, please state the reported inhibition value of Cc1nnc(SCc2nc3ccccc3s2)n1-c1ccccc1 .
[A] -17.5

[Q] If you can, please state the reported inhibition value of CCN1C(=O)CC(N2CCC(Nc3ccc(F)cc3)CC2)C1=O (stereo not drawn) .
[A] -6.01

[Q] If you can, please state the reported inhibition value of Cc1nnc2n(-c3ccc(Cl)cc3)c(=O)c3c4c(sc3n12)CN(C)CC4 .
[A] -5.51

[Q] If you can, please state the reported inhibition value of COc1ccc(-c2nc(CSCC(=O)NCc3ccc4c(c3)OCO4)c(C)o2)cc1OC .
[A] 20.1

[Q] If you can, please state the reported inhibition value of O=C(NC1CCCc2ccccc21)c1ccc(CNc2c(N3CCOCC3)c(=O)c2=O)cc1 (stereo not drawn) .
[A] 27

[Q] If you can, please state the reported inhibition value of Nc1cc(CN2C(=O)c3ccccc3C2=O)cc(Cl)c1O .
[A] 36.4

[Q] If you can, please state the reported inhibition value of O=C(CCS(=O)(=O)c1cc(Br)cc2c1N(C(=O)C1CC1)CC2)NCC1CCCO1 (stereo not drawn) .
[A] -10.9

---

Experiment: inhibitors of TNFa-induced NFkB p65 translocation, primary screen, imaging, HUVEC, MLSMR starter and 10KST1 sets (AID 438);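 also: compound added about 3h40 before a 20 min TNFalpha stimulation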
Conditions: HUVEC TNFa-induced p65 nuclear translocation; measured here: nuclei count (cytotoxicity indicator), at 2.08 µM
Lab note: anything with cell count at or over 500 counts as Criterion met; the rest go in Criterion not met.

[Q] Would you say Cc1cc(NCCNC2=CC(=O)CCC2)nc2ccccc12 shows cell count at minimum 500?
[A] Criterion not met

[Q] Would you say S=c1[nH]nc(-c2ccco2)n1C1CCCCC1 shows cell count at minimum 500?
[A] Criterion met

[Q] Would you say COC(=O)COc1ccc(Oc2nc(SC)nc(N(C)C)n2)nn1 shows cell count at minimum 500?
[A] Criterion not met

[Q] Would you say Clc1ccc(-n2ncc3c(NCc4cccs4)ncnc32)cc1 shows cell count at minimum 500?
[A] Criterion met

[Q] Would you say c1ccc2c(c1)CCN(c1ncnc3c1[nH]c1ccccc13)C2 shows cell count at minimum 500?
[A] Criterion met

[Q] Would you say Cc1ccc(-c2noc(CCC(=O)NCCc3ccccc3Cl)n2)cc1 shows cell count at minimum 500?
[A] Criterion not met

[Q] Would you say CCCOc1ccc(N2C(=O)CC(SCCN)C2=O)cc1 (stereo unspecified) shows cell count at minimum 500?
[A] Criterion not met

[Q] Would you say O=C(NC1CC1)C1CCN(c2ccc(S(=O)(=O)N3CCOCC3)cc2)CC1 shows cell count at minimum 500?
[A] Criterion met

[Q] Would you say C=CCn1c(N)c(C(=O)Nc2ccccc2)c2nc3ccccc3nc21 shows cell count at minimum 500?
[A] Criterion met

[Q] Would you say CCCOC(=O)CSc1nc(N)c(C#N)c(CC)c1C#N shows cell count at minimum 500?
[A] Criterion not met

[Q] Would you say CCC(=O)Nc1nc2ccccc2n1Cc1ccccc1C shows cell count at minimum 500?
[A] Criterion not met

[Q] Would you say Cn1c(SCC(=O)N2CCOCC2)nnc1-c1cnccn1 shows cell count at minimum 500?
[A] Criterion met

[Q] Would you say Cc1cccc(OCC(=O)N(Cc2cccs2)C2CCS(=O)(=O)C2)c1C (stereo unspecified) shows cell count at minimum 500?
[A] Criterion not met

[Q] Would you say COCCOC(=O)c1[nH]c2c(c1C)C(=O)CC(c1ccco1)C2 (stereo unspecified) shows cell count at minimum 500?
[A] Criterion met

[Q] Would you say CCc1ccc2[nH]c(=O)c(C(c3nnnn3CC3CCCO3)N3CCCc4ccccc43)cc2c1 (stereo unspecified) shows cell count at minimum 500?
[A] Criterion not met

[Q] Would you say Cc1cccn2c(=O)c3cc(C(=O)NCc4cccnc4)c(=N)n(C)c3nc12 shows cell count at minimum 500?
[A] Criterion met

[Q] Would you say CCCCC(=O)NCCc1cc2ccc(OC)cc2[nH]c1=O shows cell count at minimum 500?
[A] Criterion not met

[Q] Would you say Cn1c(=O)oc2cc(S(=O)(=O)N3CCN(c4ccccn4)CC3)ccc21 shows cell count at minimum 500?
[A] Criterion met

[Q] Would you say COc1ccc(C(=O)Nc2cccc(C)c2)cc1S(=O)(=O)N1CCOCC1 shows cell count at minimum 500?
[A] Criterion met

[Q] Would you say Cc1cc(Cl)c(S(=O)(=O)Nc2ccc3c(c2)OCCO3)cc1OCC(N)=O shows cell count at minimum 500?
[A] Criterion met

[Q] Would you say Cc1cc(Cl)ccc1OCCCC(=O)NO shows cell count at minimum 500?
[A] Criterion not met

[Q] Would you say O=C1CCCN1Cc1ncnn1-c1ccccc1 shows cell count at minimum 500?
[A] Criterion not met

[Q] Would you say CN(C1CCCCC1)S(=O)(=O)c1ccc(S(=O)(=O)N2CCN(CCC#N)CC2)cc1 shows cell count at minimum 500?
[A] Criterion met

[Q] Would you say Cc1cc(/C=N/n2cnnc2)c(C)n1-c1ccc2c(c1)OCO2 shows cell count at minimum 500?
[A] Criterion not met

[Q] Would you say O=C(NCCCN1CCOCC1)c1ccc(CS(=O)(=O)c2c(Cl)cccc2Cl)o1 shows cell count at minimum 500?
[A] Criterion not met

[Q] Would you say O=C1c2ccccc2-c2onc3ccc(NCc4ccco4)c1c23 shows cell count at minimum 500?
[A] Criterion met

[Q] Would you say CC1CN=C(N(C(=O)Nc2ccccc2)c2ccc(S(=O)(=O)N3CCOCC3)cc2)S1 (stereo unspecified) shows cell count at minimum 500?
[A] Criterion not met

[Q] Would you say N#CCCN(C(=O)c1ccco1)c1ccccc1 shows cell count at minimum 500?
[A] Criterion met

[Q] Would you say C=CCSC1=C(C#N)C(c2ccccc2OCC)CC(=O)N1 (stereo unspecified) shows cell count at minimum 500?
[A] Criterion not met

[Q] Would you say COC(=O)N1CC(c2ccccc2)CC1=O (stereo unspecified) shows cell count at minimum 500?
[A] Criterion met

[Q] Would you say Cc1cccc(-n2c(=O)cc(N3CCN(c4ccc(F)cc4)CC3)[nH]c2=O)c1 shows cell count at minimum 500?
[A] Criterion met

[Q] Would you say CC1(C)CCN(Cc2ccccc2)C1CC#N (stereo unspecified) shows cell count at minimum 500?
[A] Criterion met

[Q] Would you say CCOc1cccc(OCCCCn2ccnc2)c1 shows cell count at minimum 500?
[A] Criterion not met

[Q] Would you say CCCSc1nc2c(cnn2-c2ccc(Cl)cc2)c(=O)[nH]1 shows cell count at minimum 500?
[A] Criterion not met

[Q] Would you say O=C(NC1CCCCC1)c1cc2nc(-c3ccco3)cc(C(F)(F)F)n2n1 shows cell count at minimum 500?
[A] Criterion not met

[Q] Would you say COC(=O)c1cc2ccsc2n1Cc1nc(-c2ccc(OC)cc2)oc1C shows cell count at minimum 500?
[A] Criterion met

[Q] Would you say O=C(CN1C(=O)CCSc2ccccc21)Nc1ccccc1 shows cell count at minimum 500?
[A] Criterion met

[Q] Would you say CC1=C(C(=O)Nc2ccc(F)cc2)C(c2cccc(C)c2)n2nc(CCCO)nc2N1 (stereo unspecified) shows cell count at minimum 500?
[A] Criterion met

[Q] Would you say Cc1ccc(-n2nnnc2SCC(=O)c2cc(C)n(-c3cc(C)on3)c2C)cc1 shows cell count at minimum 500?
[A] Criterion met

[Q] Would you say Cc1cc(C)c2c(C)nn(C3CCCCC3)c2n1 shows cell count at minimum 500?
[A] Criterion not met

[Q] Would you say O=C(OCc1ccc2c(c1)OCO2)c1ccc(S(=O)(=O)N2CCCCC2)cc1 shows cell count at minimum 500?
[A] Criterion met

[Q] Would you say CCOc1ccc(NC(=O)CN(C)CC(=O)NC2CCCc3ccccc32)cc1OCC (stereo unspecified) shows cell count at minimum 500?
[A] Criterion not met

[Q] Would you say O=C(Oc1cccnc1)c1ccco1 shows cell count at minimum 500?
[A] Criterion met

[Q] Would you say CCCCSc1nnc2n(CCc3ccccc3)c(=O)c3c4c(sc3n12)COC(C)(C)C4 shows cell count at minimum 500?
[A] Criterion met
